Ref: the supplement of paper PMC10567573

# test: protein stability index of a GFP-peptide fusion (GPS, HEK-293T) (PSI 1-6); higher = more stable;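 also: 24-mer peptide tiles fused after GFP, lentivirally expressed, FACS-sorted into six equal bins by GFP/DsRed ratio, decoded by Illumina sequencing, PSI is the read-weighted mean bin number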
# settings: treatment: MLN4924 1 uM, 8 h; c terminus: a fixed tail appended
Outcome: true for protein stability index of at least 4; false for anything lower.

Look over these answered cases.
seq text | label value
GTDQVCVLEWGAEGVAGKSGLEKE [FCHSD1] | true
TQYFAELLMTSGVVLCEGVKWLSF [CNOT7] | false
DVHELFLQMAVLVEKQADTLNVIE [STX11] | false
GKFIRLKNTSEQDQPMGGWEMIRK [LMNB1] | false
GLSGSGVAFVCAFSEALAEGAVKM [PYCR3] | false

Exam item: Has FGHLSVFSTSKWNHLLHHFVIGHL [FADS1] a recorded protein stability index greater than or equal to 4?
Marked response: false

Exam item: State whether the measured protein stability index reaches 4, counting equality as reaching it, for RVTSLANLISPVRNGAVRRFGQTI [NET1]
Marked response: false

Exam item: Dear colleague, could you confirm whether RMLKDNKKNWRRVYKSLLLLAYLI [CLINT1] has protein stability index at or above 4?
Marked response: false

Exam item: Textbook exercise: given the entry NVKSEKVYTRHGVPISVTGIAQVK [FLOT1] , state whether its protein stability index is greater than or equal to 4.
Marked response: false

Exam item: Quick check, protein stability index >= 4? GCSLHEEDTQRHETYHQQGQCQVL [TCAP]
Marked response: true

Exam item: Could you please find out whether ICELVMALDYLQNQRIIHRDMKPD [STK32A] has protein stability index that meets 4 or exceeds it?
Marked response: false

Exam item: Tell me whether protein stability index is at least 4 here: VEKSSPATSLFVELDEEEVKAATT [BCL2L13]
Marked response: true

Exam item: Reported protein stability index at or above 4? VEEPSSKDVMEKREDSKEAEKSGE [CHGA]
Marked response: true

Exam item: Could you tell me if the measured protein stability index of ARLFDEPQLASLCLDTIDKSTMDA [BTBD1] reaches 4 or more?
Marked response: true

Exam item: Please indicate if the recorded protein stability index for VCCNPYHFSRLCGPESPPPPYSRL [SMAD6] meets or exceeds 4.
Marked response: false

Exam item: Is the recorded value of protein stability index equal to or greater than 4 for this sequence? GCSSTQGNGRPGRPSQYRPDGLRS [LCOR]
Marked response: true

Exam item: Has HQYWPAERSARYQYFVVDPMAEYN [PTPRD] a recorded protein stability index greater than or equal to 4?
Marked response: false

Exam item: Quick check: does TPDIKSHYAFRIFDFDDDGTLNRE [CIB1] have protein stability index greater than or equal to 4?
Marked response: false

Exam item: Could you please find out whether DDAVRVLREIVHKPGPITLTVAKC [DVL3] has protein stability index that meets 4 or exceeds it?
Marked response: false

Exam item: Given the entry TLIREKSFGACLREETPRMPSWAS [ELOA2] , answer whether its protein stability index meets or surpasses 4.
Marked response: false

Exam item: Does the reported protein stability index for FSRVCRLHRGQLSLFCLEDKELLC [TRIM35] fall at or above the 4 mark?
Marked response: false

Exam item: Please check the record SPTSRPPWAVDPAFAERYAPDKTS [PDLIM7] and state if its protein stability index is at or above 4.
Marked response: true

Exam item: Check this sequence for protein stability index at or above 4: AQTLAMMLQEQLDAINEEIRMIQE [PPFIA4]
Marked response: false

Exam item: Does the reported protein stability index for HGSQGTYSNTKENGINGELTSADR [MAP2] fall at or above the 4 mark?
Marked response: true
